- Tested System: human RPA70AB (A and B DNA binding domains of RPA70) (Homo sapiens, UniProt P27694)
- Construct: recombinant human RPA70AB (181-422) in a pSV281 vector; 6xHis (TEV site) (N, cleaved yes); made in house; host or cells: Escherichia coli BL21(DE3)
- Sequence (P27694 181-422): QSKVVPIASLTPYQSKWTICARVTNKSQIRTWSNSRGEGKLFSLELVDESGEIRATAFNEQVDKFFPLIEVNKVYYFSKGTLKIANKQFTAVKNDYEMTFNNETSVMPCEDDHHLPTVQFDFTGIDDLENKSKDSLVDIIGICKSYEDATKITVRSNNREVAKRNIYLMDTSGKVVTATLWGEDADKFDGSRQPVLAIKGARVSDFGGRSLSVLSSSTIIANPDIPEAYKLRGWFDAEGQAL
- Protocol Description: Fluorescence polarization competition assay, displacement of 5′-6FAM ssDNA probe from RPA70AB
- Particulars: high-affinity component of biphasic displacement curve; mean ± s.e.m., n ≥ 3; read-out: fluorescence polarization hRPA70AB Ki1
Quantity: Ki (nM)
The response must be a number in nM with no trailing unit.

## Task Please give the measured Ki for this molecule: O=C(Nc1cc(C(=O)Nc2ccc(S(=O)(=O)O)cc2)cc(C(=O)Nc2ccc(S(=O)(=O)O)cc2)c1)Nc1cc(C(=O)Nc2ccc(S(=O)(=O)O)cc2)cc(C(=O)Nc2ccc(S(=O)(=O)O)cc2)c1
## Result 210
